Target: JAK2 (JH1domain-catalytic, Y1007F,Y1008F) kinase (Homo sapiens, UniProt O60674, Y1007F/Y1008F)
Construct: JAK2 (JH1domain-catalytic, Y1007F,Y1008F) kinase was expressed as N-terminal fusion
Sequence (O60674 849-1124 Y1007F/Y1008F limits assumed): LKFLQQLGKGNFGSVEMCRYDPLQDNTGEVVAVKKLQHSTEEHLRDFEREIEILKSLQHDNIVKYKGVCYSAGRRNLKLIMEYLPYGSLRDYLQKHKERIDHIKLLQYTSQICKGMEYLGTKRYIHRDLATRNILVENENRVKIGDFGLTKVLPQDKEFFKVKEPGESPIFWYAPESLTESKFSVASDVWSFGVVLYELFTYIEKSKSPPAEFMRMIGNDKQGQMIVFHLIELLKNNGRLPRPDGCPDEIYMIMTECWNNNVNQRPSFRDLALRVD
Assay: JAK2 JH1 Domain Binding Assay
Settings: qPCR readout
pKd: −log10 of the molar value.
# pKd listing for each entry below

Solved cases (5 shown):
>>> obs_value("Cn1c(Nc2cc(C(C)(C)C)n([C@@H]3CCN(CCF)C3)n2)nc2ncc(Oc3cnn4ccncc34)c(C(F)F)c21")
"6.00 to 7.30"
>>> obs_value("CNc1cn2ncc(Oc3cnc4nc(Nc5cc(C(F)(F)F)cn(C)c5=O)n(C)c4c3)c2cn1")
"7.30 to 8.00"
>>> obs_value("Cn1c(Nc2cc(C(C)(C)C)n([C@@H]3CCC[C@@H]3O)n2)nc2ncc(Oc3cnn4ccncc34)c(C(F)F)c21 (single isomer, unassigned)")
"7.30 to 8.00"
>>> obs_value("Cn1c(Nc2cc(C(C)(C)C)n([C@H]3CCO[C@@H]3CO)n2)nc2ncc(Oc3cnc4ccnn4c3)c(Cl)c21")
"7.30 to 8.00"
>>> obs_value("Cn1c(Nc2cc(C3CC3)cn([C@H]3CC[C@@H]3O)c2=O)nc2ncc(Oc3cnn4ccccc34)c(Cl)c21 (single isomer, unassigned)")
"> 8.00"

Consider now this further molecule.
**Q:** Given the molecule Cn1c(Nc2nn3c(c2F)COC(C)(C)C3)nc2ncc(Oc3cnn4ccncc34)c(Cl)c21 , what is its reported pKd?
**A:** > 8.00

* * *

# Kd listing for each entry below
Target: JAK2 (JH1domain-catalytic, Y1007F,Y1008F) kinase (Homo sapiens, UniProt O60674, Y1007F/Y1008F)
Construct: JAK2 (JH1domain-catalytic, Y1007F,Y1008F) kinase was expressed as N-terminal fusion
Test: JAK2 JH1 Domain Binding Assay
Details: qPCR readout

>>> obs_value("CNc1cn2ncc(Oc3cnc4nc(Nc5cc(C(F)(F)F)cn(C(C)C)c5=O)n(C)c4c3Cl)c2cn1")
"< 10 nM"
>>> obs_value("Cn1c(Nc2cc(C(C)(C)C)n([C@H]3C[C@H](O)C3)n2)nc2ncc(Oc3cnn4ccncc34)c(Cl)c21")
"< 10 nM"
>>> obs_value("CN1CCCCC1COc1cc(Nc2nc3ncc(Oc4cnn5ccncc45)c(Cl)c3n2C)cc(C(F)(F)F)c1 (single isomer, unassigned) [Example I-350-a]")
"< 10 nM"

**Q:** Given the molecule COc1c(Oc2cnc3sccc3c2)cnc2nc(Nc3cc(C(C)(C)C)n([C@@H]4CCN(C)C4)n3)n(C)c12 , what is its reported Kd?
**A:** 50 to 1000 nM

**Q:** Given the molecule Cn1c(Nc2cc(C3CC3)cn([C@H]3C[C@H](O)C3)c2=O)nc2ncc(Oc3cnn4cc(F)ccc34)c(Cl)c21 , what is its reported Kd?
**A:** < 10 nM

**Q:** Given the molecule CNc1cn2ncc(Oc3cnc4nc(Nc5cc(O[C@H]6CCN(C)C6)cc(C(F)(F)F)c5)n(C)c4c3Cl)c2cn1 , what is its reported Kd?
**A:** < 10 nM

**Q:** Given the molecule CNc1ccc2c(Oc3cnc4nc(Nc5cc(C(F)(F)F)cn(C)c5=O)n(C)c4c3Cl)cnn2c1 , what is its reported Kd?
**A:** < 10 nM

**Q:** Given the molecule CNc1nccn2ncc(Oc3cnc4nc(Nc5cc6n(n5)CCCC6(C)C)n(C)c4c3Cl)c12 , what is its reported Kd?
**A:** 10 to 50 nM

**Q:** Given the molecule Cn1c(Nc2cc(C(=O)NCCN3CCOCC3)cc(C(F)(F)F)c2)nc2ncc(Oc3cnn4ccccc34)c(Cl)c21 , what is its reported Kd?
**A:** 10 to 50 nM

* * *

Target: JAK2 (JH1domain-catalytic, Y1007F,Y1008F) kinase (Homo sapiens, UniProt O60674, Y1007F/Y1008F)
Construct: JAK2 (JH1domain-catalytic, Y1007F,Y1008F) kinase was expressed as N-terminal fusion
Assay: JAK2 JH1 Domain Binding Assay
Details: qPCR readout
Value type: Kd

Solved cases (8 shown):
>>> obs_value("CNc1nccn2ncc(Oc3cnc4nc(Nc5cc(C(F)(F)F)cn(C)c5=O)n(C)c4c3)c12")
"10 to 50 nM"
>>> obs_value("Cn1cc(C(F)(F)F)cc(Nc2nc3ncc(Oc4cnn5cc(C#N)ccc45)c(Cl)c3n2C)c1=O")
"< 10 nM"
>>> obs_value("CN1C[C@@H](F)[C@H](n2nc(Nc3nc4ncc(Oc5cnn6ccncc56)c(Cl)c4n3C)cc2C(C)(C)C)C1 (single isomer, unassigned)")
"10 to 50 nM"
>>> obs_value("Cn1c(Nc2cc(C(C)(C)C)n([C@H]3CCN(CCF)C3)n2)nc2ncc(Oc3cnn4ccncc34)c(Cl)c21")
"< 10 nM"
>>> obs_value("Cn1cc(-n2cc(C(F)(F)F)cc(Nc3nc4ncc(Oc5cnn6cc(F)ccc56)c(Cl)c4n3C)c2=O)cn1")
"< 10 nM"
>>> obs_value("CNc1cn2ncc(Oc3cnc4nc(Nc5cc(C(C)(C)C)n([C@H]6CCN(C)C6)n5)n(C)c4c3Cl)c2cn1")
"10 to 50 nM"
>>> obs_value("CNc1nccn2ncc(Oc3cnc4nc(Nc5cc(C(F)(F)F)cn(-c6cccnc6)c5=O)n(C)c4c3Cl)c12")
"< 10 nM"
>>> obs_value("Cn1c(Nc2cc(C3CC3)cn([C@H]3C[C@@H](C#N)C3)c2=O)nc2ncc(Oc3cnn4ccncc34)c(Cl)c21")
"< 10 nM"

**Q:** Given the compound Cn1c(Nc2cc(C3CC3)cn([C@@H]3CC[C@H]3O)c2=O)nc2ncc(Oc3cnn4ccncc34)c(Cl)c21 (single isomer, unassigned) , what is its reported Kd?
**A:** < 10 nM

**Q:** Given the compound Cn1c(Nc2cc(C(F)(F)C(F)(F)F)n([C@H]3CCOC3)n2)nc2ncc(Oc3cnc4ccnn4c3)c(Cl)c21 , what is its reported Kd?
**A:** 10 to 50 nM

**Q:** Given the compound Cc1cc2cc(Oc3cnc4nc(Nc5cc(C(F)(F)F)cn(C)c5=O)n(C)c4c3C#N)cnc2[nH]1 , what is its reported Kd?
**A:** 10 to 50 nM

**Q:** Given the compound Cn1c(Nc2cc(C3CC3)cn(CCCN3CCC(F)(F)C3)c2=O)nc2ncc(Oc3cnn4ccncc34)c(Cl)c21 , what is its reported Kd?
**A:** < 10 nM

* * *

Target: JAK2 (JH1domain-catalytic, Y1007F,Y1008F) kinase (Homo sapiens, UniProt O60674, Y1007F/Y1008F)
Construct: JAK2 (JH1domain-catalytic, Y1007F,Y1008F) kinase was expressed as N-terminal fusion
Assay: JAK2 JH1 Domain Binding Assay
Conditions: qPCR readout
# Kd listing for each entry below

**Q:** Given the compound CNc1cn2ncc(Oc3cnc4nc(Nc5ccc(CN6CC[C@H](OC)C6)c(C(F)(F)F)c5)n(C)c4c3Cl)c2cn1 , what is its reported Kd?
**A:** 50 to 1000 nM

**Q:** Given the compound Cn1c(Nc2cc(C(F)(F)F)cn([C@H]3CCCOC3)c2=O)nc2ncc(Oc3cnn4ccncc34)c(Cl)c21 (single isomer, unassigned) , what is its reported Kd?
**A:** < 10 nM

**Q:** Given the compound COc1c(Oc2cnn3ccccc23)cnc2nc(Nc3cc(C4CC4)cn(CCCN4CCC(F)(F)C4)c3=O)n(C)c12 , what is its reported Kd?
**A:** 10 to 50 nM

**Q:** Given the compound Cn1c(Nc2cc(C(C)(C)C)n(C3CC4(COC4)C3)n2)nc2ncc(Oc3cnn4ccnc4c3)c(Cl)c21 , what is its reported Kd?
**A:** 10 to 50 nM

**Q:** Given the compound CNc1nccn2ncc(Oc3cnc4nc(Nc5cc(C(C)(C)C)n([C@H]6CCN(C)C6)n5)n(C)c4c3Cl)c12 , what is its reported Kd?
**A:** < 10 nM

**Q:** Given the compound CN1CC[C@H](n2nc(Nc3nc4ncc(Oc5cnn6ccnc6c5)c(Cl)c4n3C)cc2C(C)(C)C)C1 , what is its reported Kd?
**A:** 10 to 50 nM

**Q:** Given the compound Cn1c(Nc2cc(C(F)(F)F)cn([C@H]3C[C@H](O)C3)c2=O)nc2ncc(Oc3cnn4ccncc34)c(Cl)c21 (stereo in doubt) , what is its reported Kd?
**A:** < 10 nM

**Q:** Given the compound Cc1cc2cc(Oc3cnc4nc(Nc5cc(C(F)(F)F)cn(C)c5=O)n(C)c4c3Cl)cnc2[nH]1 , what is its reported Kd?
**A:** 10 to 50 nM

**Q:** Given the compound Cn1c(Nc2cc(C3CC3)cn(CC#N)c2=O)nc2ncc(Oc3cnn4ccncc34)c(Cl)c21 , what is its reported Kd?
**A:** < 10 nM

* * *

# pKd listing for each entry below
Molecular target: JAK2 (JH1domain-catalytic, Y1007F,Y1008F) kinase (Homo sapiens, UniProt O60674, Y1007F/Y1008F)
Construct: JAK2 (JH1domain-catalytic, Y1007F,Y1008F) kinase was expressed as N-terminal fusion
Assay: JAK2 JH1 Domain Binding Assay
Details: qPCR readout
pKd: −log10 of the molar value.

Solved cases (5 shown):
>>> obs_value("CNc1nccn2ncc(Oc3cnc4nc(Nc5cc(C(F)(F)F)c(CN(C)C)cc5F)n(C)c4c3Cl)c12")
"7.30 to 8.00"
>>> obs_value("Cn1cc(C(F)(F)F)cc(Nc2nc3ncc(Oc4cnc5[nH]ccc5c4)c(C#N)c3n2C)c1=O")
"> 8.00"
>>> obs_value("CNc1nccn2ncc(Oc3cnc4nc(Nc5cc(C(F)(F)F)cn([C@H]6CCOC6)c5=O)n(C)c4c3Cl)c12 (single isomer, unassigned)")
"> 8.00"
>>> obs_value("Cn1cc(C(F)(F)F)cc(Nc2nc3ncc(Oc4cnn5ccnc(O[C@H]6CC[C@@H]6O)c45)c(Cl)c3n2C)c1=O (single isomer, unassigned)")
"> 8.00"
>>> obs_value("Cn1c(Nc2cc3n(n2)CCCC3(F)F)nc2ncc(Oc3cnc4[nH]ncc4c3)c(C#N)c21")
"> 8.00"

**Q:** Given the compound Cn1cc(-n2cc(C3CC3)cc(Nc3nc4ncc(Oc5cnn6ccccc56)c(Cl)c4n3C)c2=O)cn1 , what is its reported pKd?
**A:** > 8.00

**Q:** Given the compound CN1CC[C@@H](n2nc(Nc3nc4ncc(Oc5cnn6ccncc56)c(Cl)c4n3C)cc2C(C)(C)C)C1 , what is its reported pKd?
**A:** > 8.00

**Q:** Given the compound Cn1cc(C(F)(F)F)cc(Nc2nc3ncc(Oc4cnc5[nH]nc(C(F)(F)F)c5c4)c(C#N)c3n2C)c1=O , what is its reported pKd?
**A:** 7.30 to 8.00

**Q:** Given the compound CNc1cn2ncc(Oc3cnc4nc(Nc5cc(CN6CC7(COC7)C6)cc(C(F)(F)F)c5)n(C)c4c3Cl)c2cn1 , what is its reported pKd?
**A:** 7.30 to 8.00

**Q:** Given the compound COc1c(Oc2cnn3ccncc23)cnc2nc(Nc3cc(C4CC4)cn(C)c3=O)n(C)c12 , what is its reported pKd?
**A:** > 8.00
